test: qHTS for Inhibitors of Plasmodium falciparum (GB4) proliferation (AID 504315); also: nearly all actives have a fitted effect of over 50% in size; details: P. falciparum GB4 in erythrocytes, SYBR Green DNA, 72 h; series mostly up to 6.7 µM
Records with an inconclusive call do not appear. Active and inactive are the calls of the source. Calls follow the shape of the dose curve; as a rule, active = well fitted inhibition curve with a large enough effect; inconclusive = small, poorly fitted or top-dose-only effect, or effect the other way; inactive = flat fitted curve, though single readings scatter.
A correct response names exactly one class from Yes for active, No for inactive

Please state the recorded outcome for this compound: `CCCC[C@]12Cc3cc(C#N)ccc3[C@H](O1)c1c(c3cc(F)ccc3oc1=O)O2` No

I would be grateful if you could indicate the recorded call for `CC(C)[C@@H](OCc1ccccc1)[C@H](C)CON=C1[C@H]2CCn3c(=O)n(-c4ccccc4)c(=O)n3[C@@H]2[C@H](O)[C@@H]2O[C@H]12` . No

Please state the recorded outcome for this compound: `CC=COC(=O)N[C@@H](c1ccccc1)[C@]1(C(=O)OC)CCCC1=O` No

For `C=CC[C@@](C(C)=O)(C(=O)OC)[C@@H](NC(=O)OC(C)(C)C)c1ccccc1` , which call appears in the assay record? No

Recorded test outcome, item COc1cc(CCN2C(=O)NC(c3cccc(C(F)(F)F)c3)C(C(C)=O)=C2C)cc(OC)c1OC (centres undefined) No

Kindly provide the recorded test outcome for the following compound: CCCCc1cc2c(cn1)=C(OC(=O)C1CCCC1)C(C)(OC(=O)CC)C(=O)C=2 (centres undefined) Yes

Could you kindly confirm the outcome this assay logged for `COc1ccc(COC(=O)NN=C2C[C@@H](O)[C@@H](O)[C@@H]3[C@H]4C(=O)N(C5CCCCC5)C(=O)[C@@H]4CC[C@@H]23)cc1` ? No

Recorded test call requested for C=CCOC(=O)NC(c1ccc(F)c(F)c1)C(C(=O)COC)C(=O)OC (centres undefined) No

Could you check what this test reported for `COC(=O)N[C@H](CC(C)=O)c1cccs1` ? No

* * *

assay: SW1088 Cancer Cell Toxicity qHTS against the NCATS CANVASS Library (AID 1347350); settings: SW1088 viability, CellTiter-Glo luminescence, 72 h; series mostly up to 38.3 µM; also: nearly all actives have a fitted effect of over 75% in size
Inconclusive results are not listed. The source made the active and inactive calls. Calls follow the shape of the dose curve; as a rule, active = well fitted cell-killing curve with a large enough effect; inconclusive = small, poorly fitted or top-dose-only effect; inactive = flat fitted curve, though single readings scatter.
recorded-endpoint: outcome

Identify measured outcome associated with `C[C@@H]1C(=O)[C@]23CC[C@H]1C[C@]21O[C@H]2C(C)(C)C=CC(=O)[C@@]23COC1=O` inactive

Kindly indicate its recorded outcome. Item: `Cc1cc(O)cc2oc(C[C@H](C)O)cc(=O)c12` inactive

Determine its reported outcome: COc1cc(/C=C2/C(=O)N(c3ccc(O)cc3C(=O)O)[C@H](c3ccc(O)c(OC)c3)C2C(=O)Nc2ccc(O)cc2C(=O)O)ccc1O (some centres undefined) inactive

# return recorded outcome for input `C[C@@H]1O[C@@H](Oc2c(-c3ccc(O)cc3)oc3cc(O)cc(O)c3c2=O)[C@H](O)[C@H](O)[C@H]1O` inactive

* * *

test: qHTS for inhibitors of ER calcium dysfunction: SERCaMP assay screened against the NCATS CANVASS Library (AID 1347393); details: SH-SY5Y GLuc-SERCaMP (Gaussia luciferase released on ER calcium loss) secretion, thapsigargin, luminescence; series mostly up to 76.6 µM; also: nearly all actives have a fitted effect of over 40% in size
Records with an inconclusive call do not appear. The source made the active and inactive calls. Calls come from the whole dose curve; as a rule, active = well fitted inhibition curve with a large enough effect; inconclusive = small, poorly fitted or top-dose-only effect; inactive = no such curve, though single readings can be large or run the other way.
Just give me one of these, please: TRUE (active), FALSE (inactive)

// return assay outcome for `OCc1ccc2ocnc2c1` FALSE

GET /call?item= `CC(C)(Br)[C@@H](Cl)C[C@H](Br)[C@](C)(Cl)/C=C/Br` returns the recorded outcome of this test. TRUE

I'd appreciate the recorded outcome for `CC1(C)C=Cc2c(ccc3c2OC[C@@H](c2ccc(O)cc2O)C3)O1` from this test. TRUE

Hi team, can someone confirm the assay call for O=C1CC(c2cc(O)cc(O)c2)Oc2cc(O)ccc21 (stereo not given) ? TRUE

What is the recorded call for this compound in the test? C[C@]12CC[C@]3(C1)[C@H](CC2=O)CC(OC(=O)c1ccccc1)[C@H]1[C@@](CO)(C(=O)O)CCC[C@@]13C (stereo not given in full) FALSE

Hi, sorry to bother you, what did the test record for Oc1ccc(C2c3c(O)cc(O)cc3[C@@H]3C(c4ccc(O)cc4)c4c(O)cc(O)cc4[C@H]23)cc1 (stereo not given in full) ? FALSE

Short answer needed: outcome of this test for `CCC1=C2CCCN3C(=O)O[C@H]([C@H]1OC(C)=O)[C@H]23` ? FALSE

Check the results log: what was the call for CC1C(=O)C23CCC1C[C@@]21O[C@H]2C(C)(C)C=CC(=O)[C@@]23COC1=O (stereo not given in full) ? FALSE

// outcome(item) with item = `C=C1C(=O)O[C@H]2[C@H]1CC/C(CO)=C\CC[C@@]1(C)O[C@@H]21` TRUE

Short answer needed: outcome of this test for `Cc1cc(O)cc2oc(C[C@H](C)O)cc(=O)c12` ? FALSE
